The reported measurements were obtained from patent US8802664B2.

target: human H4 receptor (Homo sapiens, UniProt Q9H3N8); construct: expressed in transfected cells; experiment: [3H]Histamine binding on membranes of CHO cells stably expressing human H4 receptor
Sequence (Q9H3N8 whole entry): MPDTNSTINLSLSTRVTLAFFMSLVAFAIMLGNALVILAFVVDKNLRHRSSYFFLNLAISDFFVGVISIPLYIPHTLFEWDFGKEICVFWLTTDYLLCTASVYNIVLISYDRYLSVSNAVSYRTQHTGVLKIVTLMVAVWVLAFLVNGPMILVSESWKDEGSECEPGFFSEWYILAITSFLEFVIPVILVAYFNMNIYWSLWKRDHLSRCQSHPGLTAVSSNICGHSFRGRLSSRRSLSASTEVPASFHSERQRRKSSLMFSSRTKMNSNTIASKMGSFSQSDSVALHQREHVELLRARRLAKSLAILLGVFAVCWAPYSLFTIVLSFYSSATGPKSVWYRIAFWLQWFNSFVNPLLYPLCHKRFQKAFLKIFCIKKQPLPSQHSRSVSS
In this section, each of the compounds is paired with its reported Ki or IC50 activity class.
endpoint: Ki or IC50 activity class

compound="CN1CCC(OC(c2ccccc2)c2nc3ccccc3s2)C1 (stereo not drawn)" test_value="< 1000 nM"
compound="CCCOc1cccc(C(NC2CCN(C)CC2)c2nc3ccccc3s2)c1 (stereo not drawn) [Example 42]" test_value="< 30 nM"
compound="CN1CCC(OC(c2cccc(C#CCCCNC(=N)NC(=O)OC(C)(C)C)c2)c2nc3ccccc3[nH]2)CC1 (stereo not drawn)" test_value="< 300 nM"
compound="CN1CCC(OC(c2cccc(OCCN)c2)c2nc3ccccc3s2)CC1 (stereo not drawn)" test_value="< 30 nM"
compound="CSc1cccc(-c2cccc(C(OC3CCN(C)CC3)c3nc4ccccc4[nH]3)c2)c1 (stereo not drawn)" test_value="< 300 nM"
compound="CCN1CCC(OC(c2cccc(OCCN)c2)c2nc3ccccc3s2)CC1 (stereo not drawn)" test_value="< 300 nM"
compound="CN1CCC(OC(c2cccc(C#CCCCO)c2)c2nc3ccccc3s2)CC1 (stereo not drawn)" test_value="< 300 nM"
compound="Cc1ccc(C(OC2CCN(C)CC2)c2nc3ccccc3[nH]2)c(F)c1 (stereo not drawn) [Example 513]" test_value="< 30 nM"
compound="CN1CCC(OC(c2cccc(C=CCCCO)c2)c2nc3ccccc3s2)CC1 (stereo not drawn) [Example 390]" test_value="< 30 nM"
